- tested-target: HuR RRM3 F279A (human, UniProt Q15717 243-326, F279A)
- Sequence (Q15717 243-326 F279A): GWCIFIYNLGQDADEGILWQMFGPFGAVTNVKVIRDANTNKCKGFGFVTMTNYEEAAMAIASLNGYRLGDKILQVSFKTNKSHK
- assay-method-text: ITC; n=0.6; ITC: 50 mM sodium phosphate pH 7.0, 200 mM NaCl, 2 mM beta-mercaptoethanol, 298 K; NMR: 20 mM sodium phosphate pH 7.0, 200 mM NaCl, 5 mM DTT, 1 mM EDTA, 298 K
- run-parameters: protein: recombinant; tags: untagged (His6-GST cleaved)
pKd: −log10 of the molar value.

| binder | pKd |
| --- | --- |
| UUUUUU (ssRNA) [U6] | 4.35 |
